The reported numbers originate from the supplement of paper PMC11451515.

# System: SEM cells
# PROCEDURE TEXT: cell viability relative to DMSO control; higher = less cytotoxic
# CONDITION: HPLM + 10% dialyzed FBS; 48 h; 5.12 µM
MEASURE: cell viability (%)
Please respond with the number in % and leave the unit unwritten.

Query :: // query cell viability value for entry NC\1=N\C(=O)N(\C=C1F)[C@H]2C[C@H](O)[C@@H](CO)O2
Result :: 45.5

Query :: Item under review: CC(C)CC(N(C)C)C1(c2ccc(Cl)cc2)CCC1 (stereo unspecified) . Reported cell viability?
Result :: 90.4

Query :: Fill blank: measured cell viability of the molecule C[C@]\12CCC(=O)\C=C1[C@@H]3C[C@@H]3[C@@H]4[C@@H]2CC[C@@]5(C)[C@H]4[C@@H]6C[C@@H]6[C@@]57CCC(=O)O7 is ____.
Result :: 133

Query :: # lookup: cell viability of CCOC(=O)[C@@H](N)CCC(=O)N[C@@H](CSCc1ccccc1)C(=O)N[C@@H](C(=O)OCC)c1ccccc1
Result :: 119

Query :: Name the recorded cell viability for C[C@H](Cc1ccc(O)c(O)c1)[C@@H](C)Cc1ccc(O)c(O)c1 .
Result :: 122

Query :: Endpoint output: cell viability of CS[C@H]1SC[C@@H]2C(=O)N(C)[C@H](C(C)C)C(=O)OC[C@H](NC(=O)c3cnc4ccccc4n3)C(=O)N[C@H](C)C(=O)N(C)[C@H]1C(=O)N(C)[C@H](C(C)C)C(=O)OC[C@H](NC(=O)c1cnc3ccccc3n1)C(=O)N[C@H](C)C(=O)N2C . Value?
Result :: 7.3

Query :: Which cell viability value is on record for CC[C@H]1OC(=O)[C@H](C)[C@@H](O[C@H]2C[C@@](C)(OC)[C@@H](O)[C@H](C)O2)[C@H](C)[C@@H](O[C@@H]2O[C@H](C)C[C@H](N(C)C)[C@H]2O)[C@](C)(O)C[C@@H](C)CN(C)[C@H](C)[C@@H](O)[C@]1(C)O ?
Result :: 129

Query :: What cell viability value was documented for this molecule, CC(C)n1cnc2c(NCCc3ccc(O)cc3)nc(-c3csc4ccccc34)nc21 ?
Result :: 122

Query :: Suppose we examine the molecule C[C@H](NCc1ccc(OCc2cccc(F)c2)cc1)C(N)=O ; what cell viability value has been reported?
Result :: 29.6

Query :: Return reported cell viability; argument: CC(C)c1c(C(=O)Nc2ccccc2)c(-c2ccccc2)c(-c2ccc(F)cc2)n1CC[C@@H](O)C[C@@H](O)CC(=O)[O-]
Result :: 99.8

Query :: Can you share its cell viability? I mean this molecule: CCCCCN(CCC12CC3CC(CC(C3)C1)C2)C(=O)NCCCc1ccncc1
Result :: 107

Query :: Which cell viability value is on record for CN(C)CCOc1ccc(/C(=C(/CCCl)c2ccccc2)c2ccccc2)cc1 ?
Result :: 58.5

Query :: Consider the molecule shown here: Cc1ccc(-c2cc(C(F)(F)F)nn2-c2ccc([S+](N)(=O)[O-])cc2)cc1 What is its recorded cell viability?
Result :: 106

Query :: What value of cell viability has been recorded for this entry: C1CN\2C[C@@H](\N=C2S1)C3=CC=CC=C3
Result :: 97.8

Query :: Entry CN1CCC(CC1)=C2C3=C(C=CC=C3)\C=C/C4=C2C=CC=C4 has what cell viability?
Result :: 131

Query :: Which cell viability reading was recorded for the molecule N[C@@H](Cc1ccc(O)c(O)c1)C(=O)O ?
Result :: 122
